All figures here come from patent US20160297889A1.

Target: T1, CAPRIN-1 protein expressed on the membrane surface of human cancer cells (human, UniProt Q14444 2-709)
T1 sequence (looked up): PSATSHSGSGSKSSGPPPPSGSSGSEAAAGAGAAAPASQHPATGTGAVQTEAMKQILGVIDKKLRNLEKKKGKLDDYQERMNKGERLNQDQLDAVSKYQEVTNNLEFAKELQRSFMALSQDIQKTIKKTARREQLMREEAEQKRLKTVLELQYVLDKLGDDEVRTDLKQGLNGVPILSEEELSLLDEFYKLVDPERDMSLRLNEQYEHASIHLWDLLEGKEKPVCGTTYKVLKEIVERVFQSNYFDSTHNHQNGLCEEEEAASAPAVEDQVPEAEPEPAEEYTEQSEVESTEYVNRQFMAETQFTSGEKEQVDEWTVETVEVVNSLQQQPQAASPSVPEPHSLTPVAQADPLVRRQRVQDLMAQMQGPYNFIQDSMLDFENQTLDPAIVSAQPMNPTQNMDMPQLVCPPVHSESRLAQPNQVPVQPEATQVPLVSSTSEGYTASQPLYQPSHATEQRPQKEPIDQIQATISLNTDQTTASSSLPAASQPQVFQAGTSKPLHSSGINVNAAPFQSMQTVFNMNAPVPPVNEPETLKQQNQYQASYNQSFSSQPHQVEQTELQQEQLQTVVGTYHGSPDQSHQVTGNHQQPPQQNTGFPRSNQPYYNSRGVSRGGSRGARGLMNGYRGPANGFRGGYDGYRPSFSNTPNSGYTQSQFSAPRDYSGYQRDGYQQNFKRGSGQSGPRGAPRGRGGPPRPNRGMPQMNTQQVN
Assay: cell-based or functional assay
quantity: ADCC cytotoxic activity (51Cr release) on QG56

Known ADCC cytotoxic activity (51Cr release) on QG56 results, listed for orientation:
>>> recordedvalue("humanized antibody #0 (antibody, V domains shown) VH: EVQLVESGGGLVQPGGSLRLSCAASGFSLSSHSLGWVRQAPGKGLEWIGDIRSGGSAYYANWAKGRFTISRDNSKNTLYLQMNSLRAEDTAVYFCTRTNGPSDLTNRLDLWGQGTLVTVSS VL: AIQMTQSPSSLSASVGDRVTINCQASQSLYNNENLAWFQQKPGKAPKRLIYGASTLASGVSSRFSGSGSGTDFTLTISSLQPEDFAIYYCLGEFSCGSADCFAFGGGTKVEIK")
"≥ 38%"
>>> recordedvalue("humanized antibody #1 (antibody, V domains shown) VH: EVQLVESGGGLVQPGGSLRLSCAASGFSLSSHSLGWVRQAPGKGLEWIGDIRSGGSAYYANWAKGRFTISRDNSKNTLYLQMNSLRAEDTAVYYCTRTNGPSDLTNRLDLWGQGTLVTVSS VL: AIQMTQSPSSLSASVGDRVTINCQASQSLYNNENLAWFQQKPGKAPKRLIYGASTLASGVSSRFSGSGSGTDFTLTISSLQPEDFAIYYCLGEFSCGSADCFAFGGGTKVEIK")
"≥ 38%"
>>> recordedvalue("humanized antibody #7 (antibody, V domains shown) VH: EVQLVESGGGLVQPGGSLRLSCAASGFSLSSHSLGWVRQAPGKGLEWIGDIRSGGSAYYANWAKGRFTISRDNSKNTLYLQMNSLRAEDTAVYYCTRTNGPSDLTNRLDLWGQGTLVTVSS VL: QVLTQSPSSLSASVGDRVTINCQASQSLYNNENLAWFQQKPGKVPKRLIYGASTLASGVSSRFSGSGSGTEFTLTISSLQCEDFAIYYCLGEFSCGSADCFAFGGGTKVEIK")
"≥ 46%"
>>> recordedvalue("humanized antibody #2 (antibody, V domains shown) VH: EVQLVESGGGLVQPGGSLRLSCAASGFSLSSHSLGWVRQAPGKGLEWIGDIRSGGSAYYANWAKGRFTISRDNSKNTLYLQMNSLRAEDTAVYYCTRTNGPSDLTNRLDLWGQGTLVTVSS VL: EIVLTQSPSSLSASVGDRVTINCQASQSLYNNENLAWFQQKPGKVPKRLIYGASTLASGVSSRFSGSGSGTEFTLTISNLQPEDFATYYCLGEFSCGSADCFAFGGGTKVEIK")
"≥ 42%"
>>> recordedvalue("humanized antibody #9 (antibody, V domains shown) VH: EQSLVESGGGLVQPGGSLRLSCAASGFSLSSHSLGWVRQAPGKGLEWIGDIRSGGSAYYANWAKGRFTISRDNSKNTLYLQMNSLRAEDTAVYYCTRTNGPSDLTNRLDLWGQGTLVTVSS VL: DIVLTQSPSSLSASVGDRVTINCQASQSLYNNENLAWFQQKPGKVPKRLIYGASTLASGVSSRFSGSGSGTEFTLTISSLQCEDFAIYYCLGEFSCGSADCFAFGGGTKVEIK")
"≥ 38%"

*Q* // lookup ADCC cytotoxic activity (51Cr release) on QG56 for humanized antibody #8 (antibody, V domains shown) VH: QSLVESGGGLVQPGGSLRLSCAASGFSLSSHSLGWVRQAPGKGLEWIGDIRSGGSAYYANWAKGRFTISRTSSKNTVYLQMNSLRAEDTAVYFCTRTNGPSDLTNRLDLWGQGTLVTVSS VL: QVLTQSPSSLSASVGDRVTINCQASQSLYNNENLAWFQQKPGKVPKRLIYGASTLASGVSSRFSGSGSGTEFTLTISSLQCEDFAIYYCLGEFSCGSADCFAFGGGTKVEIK
*A* ≥ 38%

*Q* // lookup ADCC cytotoxic activity (51Cr release) on QG56 for humanized antibody #5 (antibody, V domains shown) VH: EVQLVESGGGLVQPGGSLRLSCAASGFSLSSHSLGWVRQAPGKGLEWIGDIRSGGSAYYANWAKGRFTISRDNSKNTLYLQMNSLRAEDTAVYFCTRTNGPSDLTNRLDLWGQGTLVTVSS VL: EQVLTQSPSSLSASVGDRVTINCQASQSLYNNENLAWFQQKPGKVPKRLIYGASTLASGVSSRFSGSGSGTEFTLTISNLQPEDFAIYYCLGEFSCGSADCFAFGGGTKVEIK
*A* ≥ 42%

*Q* // lookup ADCC cytotoxic activity (51Cr release) on QG56 for humanized antibody #10 (antibody, V domains shown) VH: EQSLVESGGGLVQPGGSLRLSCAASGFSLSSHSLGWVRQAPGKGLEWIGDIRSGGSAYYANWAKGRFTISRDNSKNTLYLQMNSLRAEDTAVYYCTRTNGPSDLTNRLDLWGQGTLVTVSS VL: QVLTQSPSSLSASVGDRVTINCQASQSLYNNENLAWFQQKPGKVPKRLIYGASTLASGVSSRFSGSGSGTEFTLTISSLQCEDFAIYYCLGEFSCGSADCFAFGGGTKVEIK
*A* ≥ 46%

*Q* // lookup ADCC cytotoxic activity (51Cr release) on QG56 for humanized antibody #6 (antibody, V domains shown) VH: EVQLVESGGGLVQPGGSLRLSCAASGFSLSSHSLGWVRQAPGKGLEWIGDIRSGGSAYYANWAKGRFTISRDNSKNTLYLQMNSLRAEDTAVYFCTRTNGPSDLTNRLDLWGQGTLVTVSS VL: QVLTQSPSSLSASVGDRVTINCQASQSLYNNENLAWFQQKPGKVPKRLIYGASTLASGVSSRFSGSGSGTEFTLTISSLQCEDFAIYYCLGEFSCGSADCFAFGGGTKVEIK
*A* ≥ 46%

*Q* // lookup ADCC cytotoxic activity (51Cr release) on QG56 for humanized antibody #3 (antibody, V domains shown) VH: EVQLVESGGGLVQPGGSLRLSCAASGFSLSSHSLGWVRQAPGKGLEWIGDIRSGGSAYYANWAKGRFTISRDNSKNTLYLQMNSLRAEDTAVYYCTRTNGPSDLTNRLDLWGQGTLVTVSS VL: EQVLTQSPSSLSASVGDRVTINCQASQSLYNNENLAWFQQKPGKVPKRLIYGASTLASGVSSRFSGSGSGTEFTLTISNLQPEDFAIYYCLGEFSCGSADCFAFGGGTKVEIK
*A* ≥ 42%
